Assay: Solubility of compound in simulated intestinal fluid at pH 6.8 after 4 hrs by HPLC analysis
Assay type: ADME
# solubility at 4 h per record follows
experimental.readout: solubility at 4 h (mg/mL)

| smiles.data | experimental.readout | unit.abbreviation | bound.operator | test.result |
| --- | --- | --- | --- | --- |
| C[C@]1(COc2ccc(S(=O)(=O)N3CCOCC3)cc2)Cn2cc([N+](=O)[O-])nc2O1 | solubility at 4 h | mg/mL | = | 0.02 |
| C[C@]1(COc2ccc(-n3cc(COc4ccc(OC(F)(F)F)cc4)nn3)cc2)Cn2cc([N+](=O)[O-])nc2O1 | solubility at 4 h | mg/mL | < | 0.001 |

###

Experiment: Clearance in Balb/c mouse at 5 mg/kg, po by LC-MS/MS analysis
Type: ADME, organism-based
Settings: in vivo

| smiles.data | CL/F / mL/min/kg |
| --- | --- |
| C[C@]1(COc2ccc(S(=O)(=O)N3CCOCC3)cc2)Cn2cc([N+](=O)[O-])nc2O1 | 75.2 |

###

Experiment: Tmax in Balb/c mouse at 5 mg/kg, po by LC-MS/MS analysis
Assay type: ADME, organism-based
Settings: in vivo

| smiles.data | Tmax, h |
| --- | --- |
| C[C@]1(COc2ccc(S(=O)(=O)N3CCOCC3)cc2)Cn2cc([N+](=O)[O-])nc2O1 | 0.5 |
| C[C@]1(COc2ccc(-n3cc(COc4ccc(OC(F)(F)F)cc4)nn3)cc2)Cn2cc([N+](=O)[O-])nc2O1 | 2 |

###

Assay: Aqueous solubility of compound at pH7 for 4 hrs by HPLC analysis
Type: physicochemical
Details: aqueous solution, pH 7
Examples of compounds with documented solubility at 4 h follow.

| smiles.data | unit.abbreviation | bound.operator | solubility at 4 h |
| --- | --- | --- | --- |
| C[C@]1(COc2ccc(N3CCN(S(=O)(=O)c4ccc(F)cc4)CC3)cc2)Cn2cc([N+](=O)[O-])nc2O1 | µg/mL | = | 8.33 |
| CCOc1ccc(NC(=O)Nc2ccc(OC[C@@]3(C)Cn4cc([N+](=O)[O-])nc4O3)cc2)cc1 | µg/mL | = | 6.66 |
| Cc1ccc(S(=O)(=O)N2CCN(c3ccc(OC[C@@]4(C)Cn5cc([N+](=O)[O-])nc5O4)cc3)CC2)cc1 | µg/mL | < | 1 |
| CCc1ccc(NC(=O)Nc2ccc(OC[C@@]3(C)Cn4cc([N+](=O)[O-])nc4O3)cc2)cc1 | µg/mL | < | 1 |

###

Experiment: Solubility of compound in phosphate buffer solution at pH 7.4 after 4 hrs by HPLC analysis
Assay type: physicochemical

| smiles.data | unit.abbreviation | bound.operator | solubility at 4 h |
| --- | --- | --- | --- |
| C[C@]1(COc2ccc(S(=O)(=O)N3CCOCC3)cc2)Cn2cc([N+](=O)[O-])nc2O1 | µg/mL | = | 20 |
| C[C@]1(COc2ccc(-n3cc(COc4ccc(OC(F)(F)F)cc4)nn3)cc2)Cn2cc([N+](=O)[O-])nc2O1 | µg/mL | < | 1 |

###

Assay: Aqueous solubility of compound at pH7 for 4 hrs by HPLC analysis
Assay type: physicochemical
Conditions: aqueous solution, pH 7
solubility at 4 h for assorted molecules

| smiles.data | solubility at 4 h |
| --- | --- |
| COc1ccc(S(=O)(=O)N2CCN(c3ccc(OC[C@@]4(C)Cn5cc([N+](=O)[O-])nc5O4)cc3)CC2)cc1 | < 1 µg/mL |
| COc1ccc(NC(=S)Nc2ccc(OC[C@@]3(C)Cn4cc([N+](=O)[O-])nc4O3)cc2)cc1 | 8.66 µg/mL |
| C[C@]1(COc2ccc(-n3cc(COc4ccc(OC(F)(F)F)cc4)nn3)cc2)Cn2cc([N+](=O)[O-])nc2O1 | < 1 µg/mL |

###

Experiment: Solubility of compound in simulated gastric fluid at pH 1.2 after 4 hrs by HPLC analysis
Format: ADME

| smiles.data | unit.abbreviation | bound.operator | solubility at 4 h |
| --- | --- | --- | --- |
| C[C@]1(COc2ccc(-n3cc(COc4ccc(OC(F)(F)F)cc4)nn3)cc2)Cn2cc([N+](=O)[O-])nc2O1 | µg/mL | < | 1 |
| C[C@]1(COc2ccc(S(=O)(=O)N3CCOCC3)cc2)Cn2cc([N+](=O)[O-])nc2O1 | µg/mL | = | 20 |

###

Test: Aqueous solubility of compound at pH7 for 4 hrs by HPLC analysis
Assay type: physicochemical
Details: aqueous solution, pH 7
experimental.readout: solubility at 4 h

| smiles.data | test.result |
| --- | --- |
| C[C@]1(COc2ccc(S(=O)(=O)N3CCOCC3)cc2)Cn2cc([N+](=O)[O-])nc2O1 | 20 µg/mL |
| C[C@]1(COc2ccc(NC(=O)Nc3ccc(C(F)(F)F)cc3)cc2)Cn2cc([N+](=O)[O-])nc2O1 | < 1 µg/mL |
| C[C@]1(COc2ccc(S(=O)(=O)N3CCCCC3)cc2)Cn2cc([N+](=O)[O-])nc2O1 | 13.3 µg/mL |
| C[C@]1(COc2ccc(N3CCN(S(=O)(=O)c4ccc(C(F)(F)F)cc4)CC3)cc2)Cn2cc([N+](=O)[O-])nc2O1 | < 1 µg/mL |
| Cc1ccc(NC(=O)Nc2ccc(OC[C@@]3(C)Cn4cc([N+](=O)[O-])nc4O3)cc2)cc1 | < 1 µg/mL |
| CC(C)(C)c1ccc(NC(=O)Nc2ccc(OC[C@@]3(C)Cn4cc([N+](=O)[O-])nc4O3)cc2)cc1 | < 1 µg/mL |
| C[C@]1(COc2ccc(NC(=S)Nc3ccc(OC(F)(F)F)cc3)cc2)Cn2cc([N+](=O)[O-])nc2O1 | < 1 µg/mL |
| C[C@]1(COc2ccc(NC(=O)Nc3ccc(Cl)cc3)cc2)Cn2cc([N+](=O)[O-])nc2O1 | 6.66 µg/mL |

###

Assay: Selectivity index, ratio of CC50 for human HepG2 cells to MIC for Mycobacterium tuberculosis H37Rv ATCC 27294
Assay type: toxicity, cell-based
Conditions: read-out: Selectivity Index
Form field: selectivity ratio (one value per entry).

| smiles.data | selectivity ratio |
| --- | --- |
| C[C@]1(COc2ccc(-n3cc(COc4ccc(OC(F)(F)F)cc4)nn3)cc2)Cn2cc([N+](=O)[O-])nc2O1 | > 166 |
| C[C@]1(COc2ccc(N3CCN(S(=O)(=O)c4ccc(F)cc4)CC3)cc2)Cn2cc([N+](=O)[O-])nc2O1 | > 333 |
| C[C@]1(COc2ccc(S(=O)(=O)N3CCCCC3)cc2)Cn2cc([N+](=O)[O-])nc2O1 | > 40 |
| C[C@]1(COc2ccc(NC(=O)Nc3ccc(Cl)cc3)cc2)Cn2cc([N+](=O)[O-])nc2O1 | > 80 |

###

Assay: Metabolic stability in rat liver microsomes assessed as compound remaining after 30 mins by LC-MS/MS analysis
Assay type: ADME
Conditions: read-out: Stability
experimental.readout: remaining at 0.5 h (%)

| smiles.data | test.result |
| --- | --- |
| C[C@]1(COc2ccc(S(=O)(=O)N3CCOCC3)cc2)Cn2cc([N+](=O)[O-])nc2O1 | 99.3 |
| C[C@]1(COc2ccc(-n3cc(COc4ccc(OC(F)(F)F)cc4)nn3)cc2)Cn2cc([N+](=O)[O-])nc2O1 | 90.8 |

###

Assay: Selectivity index, ratio of CC50 for human HepG2 cells to MIC for Mycobacterium tuberculosis H37Rv ATCC 27294
Format: toxicity, cell-based
Conditions: read-out: Selectivity Index
In this section we review reported selectivity ratio values for a set of compounds.

| smiles.data | selectivity ratio |
| --- | --- |
| CCOc1ccc(NC(=O)Nc2ccc(OC[C@@]3(C)Cn4cc([N+](=O)[O-])nc4O3)cc2)cc1 | > 80 |
| COc1ccc(NC(=S)Nc2ccc(OC[C@@]3(C)Cn4cc([N+](=O)[O-])nc4O3)cc2)cc1 | > 80 |
| C[C@]1(COc2ccc(S(=O)(=O)N3CCOCC3)cc2)Cn2cc([N+](=O)[O-])nc2O1 | > 40 |
